- TESTED_SYSTEM: MLKL (Homo sapiens, UniProt Q8NB16)
- Sequence (Q8NB16 1-471): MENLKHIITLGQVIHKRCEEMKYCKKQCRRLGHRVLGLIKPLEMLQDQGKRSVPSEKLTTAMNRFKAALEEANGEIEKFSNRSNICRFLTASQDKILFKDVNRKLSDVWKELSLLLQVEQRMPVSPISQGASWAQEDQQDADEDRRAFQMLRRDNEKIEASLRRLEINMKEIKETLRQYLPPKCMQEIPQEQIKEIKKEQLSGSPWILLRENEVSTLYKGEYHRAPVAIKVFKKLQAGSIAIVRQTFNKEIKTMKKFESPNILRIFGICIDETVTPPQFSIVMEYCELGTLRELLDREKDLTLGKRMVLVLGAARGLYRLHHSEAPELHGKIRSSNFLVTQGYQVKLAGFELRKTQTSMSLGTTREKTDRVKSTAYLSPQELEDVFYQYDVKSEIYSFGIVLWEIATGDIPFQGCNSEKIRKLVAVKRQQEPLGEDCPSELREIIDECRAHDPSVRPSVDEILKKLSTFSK
- ASSAY_NOTES: MLKL degradation assay in HepG2 cell line (western blot)
- Type: cell-based
- Design: endogenous in cells; host or cells: HepG2 or HaCaT
- EXPERIMENTAL_CONTEXT: compound 10 μM; cell line not given
Classify: TRUE when Degradation assay (Degradation %) 10 μM is strictly less than 80%; FALSE when Degradation assay (Degradation %) 10 μM is not.

As a guide, the following entries are already answered.
compound="Nc1ncc(-c2cnn(C3CCN(CCCN4CCN(CC5CCN(C(=O)COc6ccc7c(c6)C(=O)N(C6CCC(=O)NC6=O)C7=O)CC5)CC4)CC3)c2)nc1C(=O)O[C@@H](C(=O)Nc1ccc(F)cc1)c1ccccc1 (stereo partly shown)" label_value=FALSE
compound="Nc1ncc(-c2cnn(C3CCN(CCC4CCN(C(=O)C5CN(c6ccc7nnn(C8CCC(=O)NC8=O)c(=O)c7c6)C5)CC4)CC3)c2)nc1C(=O)OC(C(=O)Nc1ccc(F)cc1)c1ccccc1 (stereo not shown)" label_value=TRUE
compound="Nc1ncc(-c2cnn(C3CCN(CCCN4CCN(C(=O)C5CN(C6=CC(=O)N(C7CCC(=O)NC7=O)C6=O)C5)CC4)CC3)c2)nc1C(=O)O[C@@H](C(=O)Nc1ccc(F)cc1)c1ccccc1 (stereo partly shown)" label_value=TRUE
compound="Nc1ncc(-c2cnn(C3CCN(C(=O)COC4CCN(C(=O)COc5ccc6c(c5)C(=O)N(C5CCC(=O)NC5=O)C6=O)CC4)CC3)c2)nc1C(=O)O[C@@H](C(=O)Nc1ccc(F)cc1)c1ccccc1 (stereo partly shown)" label_value=FALSE
compound="Nc1ncc(-c2cnn(C3CCN(CCOCCOCCOCCNC(=O)C4CN(c5ccc6c(c5)C(=O)N(C5CCC(=O)NC5=O)C6=O)C4)CC3)c2)nc1C(=O)O[C@@H](C(=O)Nc1ccc(F)cc1)c1ccccc1 (stereo partly shown)" label_value=TRUE

Exam item: hey, is Degradation assay (Degradation %) 10 μM for Nc1ncc(-c2cnn(C3CCN(CCC4CCN(C(=O)CNc5ccc6nnn(C7CCC(=O)NC7=O)c(=O)c6c5)CC4)CC3)c2)nc1C(=O)O[C@@H](C(=O)Nc1ccc(F)cc1)c1ccccc1 (stereo partly shown) lower than 80% or not?
Marked response: FALSE

Exam item: hey, is Degradation assay (Degradation %) 10 μM for Nc1ncc(-c2cnn(C3CCN(CCOCCOCCNC(=O)CNc4cccc5c4C(=O)N(C4CCC(=O)NC4=O)C5=O)CC3)c2)nc1C(=O)O[C@@H](C(=O)Nc1ccc(F)cc1)c1ccccc1 (stereo partly shown) lower than 80% or not?
Marked response: TRUE

Exam item: hey, is Degradation assay (Degradation %) 10 μM for Nc1ncc(-c2cnn(C3CCN(CCCN4CCN(C(=O)COc5ccc6c(c5)C(=O)N(C5CCC(=O)NC5=O)C6=O)CC4)CC3)c2)nc1C(=O)O[C@@H](C(=O)Nc1cccc(Cl)c1)c1ccccc1 (stereo partly shown) lower than 80% or not?
Marked response: FALSE

Exam item: hey, is Degradation assay (Degradation %) 10 μM for COc1ccc(C(=O)N2CCC3(CC2)CC(N2CCC(CCN4CCC(n5cc(-c6cnc(N)c(C(=O)O[C@@H](C(=O)Nc7ccc(F)cc7)c7ccccc7)n6)cn5)CC4)CC2)C3)cc1N1CCC(=O)NC1=O lower than 80% or not?
Marked response: FALSE
